Test system: NCI-H23 lung
Assay: NCI tumour cell line growth inhibition, 48 h
Please respond with reported TGI for every item in the list.

**Query** Form field: reported TGI of C/C=C/C=C\C1OC(O)([C@H](CC)C(=O)NC/C=C/C=C(\C)[C@H](OC)C(C)C2OC(\C=C/C=C/C=C(\C)C(=O)c3c(O)ccn(C)c3=O)[C@H](O)[C@@H]2O)C(O)C(O)C1(C)C (stereo partly drawn)
**Result** > 100 µM

**Query** Reported TGI for COc1ccccc1/C=N/N=C(\N)NO : what is it?
**Result** > 100 µM

**Query** # query: TGI of entry O=C1C[C@@H]2CCCC[C@@H]2C12SCCS2
**Result** > 100 µM

**Query** What does the data say about its TGI? Entry: CS(=O)(=O)Nc1cc(-c2ccc3ncnc(Nc4ccc5c(cnn5Cc5ccccc5F)c4)c3c2)cnc1Cl
**Result** > 100 µM

**Query** Returns the measured TGI for the input compound. Input: CN(C)CCCNc1ccc2nnn3c4ccc(OC(=O)c5ccc([N+](=O)[O-])cc5)cc4c(=O)c1c23
**Result** 24.5 µM

**Query** State the recorded TGI for this entry: CCOc1ccccc1NC(=O)C1=C(C)NC(C)=C(C(=O)Nc2ccccc2OCC)C1c1ccc(NC(C)=O)cc1
**Result** > 100 µM

**Query** What value of TGI has been reported for the following compound? CC12CC3CC(C1)CC(N=[N+]=[N-])(C3)C2
**Result** > 100 µM

**Query** Recorded TGI for CS/C(c1ccccc1)=[N+](/C)[O-] , please?
**Result** > 100 µM

**Query** Dear colleague, I am looking for the recorded TGI of the following compound: Cc1cc(-c2nc3cc(O)ccc3s2)ccc1N
**Result** > 100 µM

**Query** Please give the measured TGI for this compound: O=C1C(=O)c2ccccc2C(O)=C1CCCCCCCCC1CCCCC1
**Result** 14.5 µM

**Query** Which measured TGI value corresponds to O=C1CCc2cc3c(cc21)CC1(Cc2cc4c(cc2C1)CCCC4)C3 ?
**Result** > 100 µM

**Query** Which TGI is listed for CCCN(CCC)C(=O)[C@H](CC)[C@@H]1CC[C@@H](C)[C@@H]([C@H](C)[C@@H](O)[C@@H](C)C(=O)[C@H](CC)C2O[C@]3(C=C[C@@H](O)[C@]4(CC[C@@](C)([C@H]5CC[C@](O)(CC)[C@H](C)O5)O4)O3)[C@H](C)C[C@@H]2C)O1 (stereo partly drawn) ?
**Result** 7.01 µM

**Query** Entry Cc1cccc2c1C/C(=C1\CCc3c(C)cccc31)C2=O : reported TGI = ?
**Result** > 100 µM

**Query** Any idea what TGI was measured for Clc1ccc(-c2nc3ccc(C45CC6CC(CC(C6)C4)C5)cc3[nH]2)cc1 ?
**Result** > 100 µM

**Query** Any idea what its TGI is? The compound is COc1cc(-c2oc(C=Nc3ccccc3)c([N+](=O)[O-])c2-c2ccc(O)c(OC)c2)ccc1O
**Result** 33.9 µM

**Query** Report TGI for O=C(/C=C(\O)c1ccc(Cl)cc1)C(=O)NN=C(c1ccccc1)c1ccccc1 please.
**Result** > 100 µM

**Query** Please look up its TGI: Cc1ccc(N2C(=O)/C(=C/c3ccc(N(CCC#N)CCC#N)cc3C)N=C2c2cc([N+](=O)[O-])ccc2Cl)cc1
**Result** > 100 µM

**Query** Endpoint output: TGI of CN1CCN(CCCCN2c3ccccc3Sc3ccc(N=[N+]=[N-])cc32)CC1 . Value?
**Result** 35.7 µM

----------
Test system: BT-549 breast
Experiment: NCI tumour cell line growth inhibition, 48 h
Consider the following compounds; for each one, report its TGI.
Give the quantity in µM, number only.

**Query** Reported TGI, compound CC(C)CCc1c(Cl)nc(Cl)nc1Cl : ____
**Result** 12.3

**Query** Form field: reported TGI of CC(C)(C)N(Cc1ccoc1)C(=O)/C=C\S(=O)c1ccccc1 (centres undefined)
**Result** 30.3

**Query** Fill in: TGI of N#CC1=C(N)Oc2c(sc3c(F)cccc23)C1c1ccc(F)cc1 (centres undefined) is ___
**Result** 14.2

**Query** Field request: TGI | item: N#C[S-].[Au+].c1ccc(CN2[CH-]N(Cc3ccccc3)C(c3ccccc3)=C2c2ccccc2)cc1
**Result** 1.88

**Query** I'd like to know its TGI. The compound in question is CNc1nc(N(C)C)nc(N(C)C)n1
**Result** 3620

**Query** Reported TGI for O=C(CCCCCCC(=O)Nc1ccc2c(c1)/C(=C/c1ccc[nH]1)C(=O)N2)NO : what is it?
**Result** 22

**Query** Field request: TGI | item: OCCNCCNc1c2ccccc2nc2oc3ccccc3c12
**Result** 28.2

**Query** Name the recorded TGI for O=C(NCCN1CCCC1)c1cn2c(ccc3sc4ccccc4c(=O)c32)n1 .
**Result** 35.6

**Query** If you can, please state the reported TGI value of O=C1C(=O)c2ccccc2C(O)=C1CCCCCCCCC1CCCCC1 .
**Result** 27.5

**Query** Which TGI value belongs to C=C1CC[C@@H]2[C@](C)(COC(C)=O)[C@H](OC(C)=O)CC[C@@]2(C)[C@@H]1C/C=C1/C(=O)OC[C@H]1OC(C)=O ?
**Result** 5.63

----------
Assign TGI to each entry below.
Test system: ACHN renal
Assay: NCI tumour cell line growth inhibition, 48 h

**Query** Quick one: TGI of C=C(C)[C@H](O)C(O)CC(C)[C@@H]1CCC23CC12CCC1[C@@]2(C)CCC(OC(C)=O)C(C)(C)C2CC(OC2OC(COC(C)=O)C(O)C(O)C2O)[C@]13C (some centres undefined) ?
**Result** 12.6 µM

**Query** # query: TGI of entry O=C(/C=C(\O)c1ccc(Cl)cc1)C(=O)NN=C(c1ccccc1)c1ccccc1
**Result** > 100 µM

**Query** What measured TGI goes with COC(=O)/C=C(/C(=O)OC)c1c(C)cc2c(C)cc(C)cc(C)c1-2 ?
**Result** > 100 µM

**Query** Param item = COC(=O)C(CC(=O)Nc1ccc(Cl)c(Cl)c1)C(=O)C(=O)NC1C2CC3CC(C2)CC1C3 (centres undefined) ; retrieve measured TGI.
**Result** > 100 µM

----------
Tested on: OVCAR-3 ovarian
Test: NCI tumour cell line growth inhibition, 48 h
MEASUREMENT NAME: TGI (µM)
Supply the numeric figure in µM, leaving out any unit text.

**Query** Any idea what its TGI is? The molecule is COc1ccc(/C=C2\CN(C)CC3C2=NC(=S)NC3c2ccc(OC)cc2)cc1 (centres undefined)
**Result** 10.3

**Query** Fill blank: measured TGI of the molecule COc1ccc(/C=C/C(=O)c2cc3c(N)c(C(=O)Nc4ccccc4)sc3nc2C)cc1 is ____.
**Result** 0.791

**Query** May I ask what TGI has been recorded for CN(C)c1ccc(O)c2c1C[C@H]1C[C@H]3[C@H](N(C)C)C(=O)C(C(N)=O)=C(O)[C@@]3(O)C(=O)C1=C2O ?
**Result** 39.5

**Query** If you can, please state the reported TGI value of CN(C)/C=C/c1nnnn1-c1ccc(I)cc1 .
**Result** 54.5

----------
So I've got a bunch of compounds here, and I need their log10 TGI values.
System: MDA-MB-435
Experiment: NCI tumour cell line growth inhibition, 48 h
Log10 applied to TGI; unit prior to transform: µM.

**Query** Param readout = log10 TGI; param system = MDA-MB-435; param query = O=C1C(=O)c2ccccc2C(O)=C1CCCCCCCCC1CCCCC1 ; response: value
**Result** 1.24

**Query** What is its log10 TGI for MDA-MB-435? Entry: Clc1nc(Cl)c(Cc2ccccc2)c(Cl)n1
**Result** 1.28

**Query** Item COc1ccc(/C=C2\CN(C)CC3C2=NC(=S)NC3c2ccc(OC)cc2)cc1 (stereo not drawn) with MDA-MB-435 - log10 TGI?
**Result** 0.90

**Query** Param readout= log10 TGI; system= MDA-MB-435; entry= O=C1CCc2cc3c(cc21)CC1(Cc2cc4c(cc2C1)CCCC4)C3 ; returns value.
**Result** 1.71

**Query** Recall the recorded log10 TGI for S=C(Nc1ccccc1)N(Cc1ccccc1)c1ccccc1 with MDA-MB-435 and state it.
**Result** 1.69

**Query** Lab request: please report log10 TGI under test system MDA-MB-435 for C=C1CC[C@@H]2[C@](C)(COC(C)=O)[C@H](OC(C)=O)CC[C@@]2(C)[C@@H]1C/C=C1/C(=O)OC[C@H]1OC(C)=O
**Result** 1.00

**Query** // lookup log10 TGI | system=MDA-MB-435 | key= CC(C)(C)c1cc(C(=O)/C=C/c2ccc3c(c2)CCO3)cc(C(C)(C)C)c1O
**Result** -0.04

**Query** Kindly state the measured log10 TGI obtained for C=C1C(=O)O[C@H]2[C@H]1CC/C(CNS(=O)(=O)c1cccc3ccccc13)=C\CC[C@@]1(C)O[C@@H]21 with MDA-MB-435.
**Result** 0.53

**Query** Form: Entry = COC(=O)c1cc2oc(/C=C3\SC(=S)N(NC(C)=O)C3=O)cc2n1Cc1ccccc1 | System = MDA-MB-435 | log10 TGI = ____
**Result** 0.60

**Query** Query the reported log10 TGI for MDA-MB-435; item: N#CC1=C(N)Oc2c(sc3c(F)cccc23)C1c1ccc(F)cc1 (stereo not drawn)
**Result** -0.20

**Query** Could you share what log10 TGI was measured for O=C1/C(=C/c2ccc(Cl)cc2)COc2ccc(O)c(O)c21 , tested on MDA-MB-435?
**Result** 0.42

**Query** log10 TGI of COc1ccc2c(c1)OC(N)=C(C#N)C2c1ccc(F)cc1 (stereo not drawn) on MDA-MB-435?
**Result** -0.22

**Query** Checklist item: log10 TGI tested on MDA-MB-435, entry CCN(CC)CCC(=O)c1ccc(Oc2ccccc2)cc1 , value?
**Result** 1.60

**Query** Hi! What's the reported log10 TGI for COc1ccc2nc(C)cc(Nc3ccccc3O)c2c1 on MDA-MB-435?
**Result** 1.66

**Query** Report log10 TGI for CCCCCCCCCC1CC(=O)NCC(=O)NC(C(C)C)C(=O)NC(CC(C)C)C(=O)NC(C)C(=O)NC(C(C)C)C(=O)O1 (stereo not drawn) tested on MDA-MB-435.
**Result** 1.70

**Query** State its log10 TGI on MDA-MB-435: NCCCCN(Cc1nc2ccccc2[nH]1)[C@H]1CCCc2cccnc21
**Result** 1.74

**Query** // lookup log10 TGI | system=MDA-MB-435 | key= CN(C)CCNC(=O)c1cc2c3ccccc3[nH]c2c2ncccc12
**Result** 1.19

**Query** Test system MDA-MB-435; read-out log10 TGI; what value for O=C1C(=C(C(=O)c2ccccc2)C(=O)c2ccccc2)OC(c2ccccc2)=C1C(=O)c1ccccc1 ?
**Result** 1.55

**Query** Param readout= log10 TGI; system= MDA-MB-435; entry= CSC1C(=O)c2ccccc2/C(=N/Nc2nc3ccccc3s2)C1C (stereo not drawn) ; returns value.
**Result** 1.30

**Query** Param readout = log10 TGI; param system = MDA-MB-435; param query = CCCCCCCCCCCC[n+]1ccc(C(N)=O)cc1 ; response: value
**Result** 1.17

**Query** Under MDA-MB-435: log10 TGI value of CC(C)(C)N(Cc1ccoc1)C(=O)/C=C\S(=O)c1ccccc1 (stereo not drawn) ?
**Result** 1.32

**Query** Form: Entry = CN(C)c1ccc(O)c2c1C[C@H]1C[C@H]3[C@H](N(C)C)C(=O)C(C(N)=O)=C(O)[C@@]3(O)C(=O)C1=C2O | System = MDA-MB-435 | log10 TGI = ____
**Result** 1.52

Hello, the source for this data is PubChem BioAssay (NCI), in case you need it.
